// pKd lookup, one value per entry
Target: T1, extracellular domain of human BCMA (human, UniProt Q02223 1-54)
T1 construct: amine-linked to Octet AR2G tips; also called hsBCMA; BCMA (human)
T1 sequence: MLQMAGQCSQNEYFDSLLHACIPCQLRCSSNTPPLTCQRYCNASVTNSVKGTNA
Experiment: Octet BLI; Fab 200 nM
Note: pKd values are expressed as the negative base-10 logarithm of concentration in M.

Solved cases (4 shown):
binder	pKd
AB200-(2Vk31)_R2-VH-v66 (Fab, V domains shown) VH: QVQLVQSGAEVKKPGSSVKVSCKASGGTFSNYWIHWVRQAPGQGLEWMGATYRIHSTTYYNQKYKSRVTITADKSTSTAYMELSSLRSEDTAVYYCARGAIFHGYDVIDNWGQGTLVTVSS VL: DIQMTQSPSSLSASVGDRVTITCRASQSISSYLNWYQQKPGKAPKLLIYATSNLQIGVPSRFSGSGSGTDFTLTISSLQPEDFATYYCQQFRRLPWTFGQGTKLEIKR	7.86
AB200-(2Vk31)_R2-VH-v12 (Fab, V domains shown) VH: QVQLVQSGAEVKKPGSSVKVSCKASGGTYSNYWIHWVRQAPGQGLEWMGATYRSHSTTYYNQKYKSRVTITADKSTSTAYMELSSLRSEDTAVYYCARGAIYHGFDVIDNWGQGTLVTVSS VL: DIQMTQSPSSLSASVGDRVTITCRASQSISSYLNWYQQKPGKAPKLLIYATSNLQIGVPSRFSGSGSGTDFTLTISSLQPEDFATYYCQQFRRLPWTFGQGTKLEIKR	7.89
AB200-(2Vk31)_R2-VH-v27 (Fab, V domains shown, also called AB200_VH2-27_VK2-31) VH: QVQLVQSGAEVKKPGSSVKVSCKASGGTFSNYWIHWVRQAPGQGLEWMGATYRSQSTTYYNQKFKSRVTITADKSTSTAYMELSSLRSEDTAVYYCARGAVYHGYDVIDNWGQGTLVTVSS VL: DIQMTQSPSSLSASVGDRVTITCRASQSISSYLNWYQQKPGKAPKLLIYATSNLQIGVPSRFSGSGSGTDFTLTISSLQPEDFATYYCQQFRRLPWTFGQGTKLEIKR	8.15
AB200-(2Vk31)_R2-VH-v29 (Fab, V domains shown) VH: QVQLVQSGAEVKKPGSSVKVSCKASGGTFSNYWIHWVRQAPGQGLEWMGATYRSHSTTYYNEKFKSRVTITADKSTSTAYMELSSLRSEDTAVYYCARGAIYHGFDVIDNWGQGTLVTVSS VL: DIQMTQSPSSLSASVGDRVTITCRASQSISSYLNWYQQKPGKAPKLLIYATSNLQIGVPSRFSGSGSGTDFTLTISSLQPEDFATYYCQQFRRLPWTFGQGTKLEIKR	8.22

Could you now look at the following binder, please?
Complete the entry with pKd for AB200-(2Vk31)_R2-VH-v57 (Fab, V domains shown) VH: QVQLVQSGAEVKKPGSSVKVSCKASGGTFSNYWIHWVRQAPGQGLEWMGGTYRIHSTTYYNQKFKSRVTITADESTSTAYMELSSLRSEDTAVYYCARGAVYHGYDVIDNWGQGTLVTVSS VL: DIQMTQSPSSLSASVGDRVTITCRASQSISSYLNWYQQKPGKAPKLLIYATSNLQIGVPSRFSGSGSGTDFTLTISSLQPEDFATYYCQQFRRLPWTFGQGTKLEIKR 7.93
